- Tested on: MOLM13 cells
- test.description: MTT cell proliferation assay, MOLM13 cells
- Assay type: cell-based, human
- measurement.setup: Homo sapiens, MOLM-13; 10% fetal calf serum, 72 h treatment; read-out: IC50, proliferation of MOLM13 cells, FCS 10%
Record form. Attribute: IC50. Fill in for each entry.
One number for each entry, in µM.

CNC(=O)c1cc(Oc2ccc(NC(=O)Nc3ccc(Cl)c(C(F)(F)F)c3)cc2)ccn1 [Sorafenib, sorafenib]	0.002

Kindly review the next compound as well.
Ask | Item Cc1oncc1C(=O)Nc1ccc(C(F)(F)F)cc1 [Leflunomide, leflunomide] with MOLM13 cells - IC50?
Reply | 14.8

----------
- Tested on: MEC1 cells
- test.description: MTT cell proliferation assay, MEC1 cells
- Format: cell-based, human
- measurement.setup: 10% HS, DMSO control, 72 h treatment; read-out: IC50, proliferation of MEC1 cells in HS, DMSO control
property: IC50 (µM)
Give bare numbers, in µM.

Cc1ccc(S(=O)(=O)/C=C/C#N)cc1 [Bay 11-7082]	9.15

Kindly review the next compound as well.
Ask | For the compound shown here, O=C1/C(=C/c2ccccc2F)CNC/C1=C\c1ccccc1F [EF24] , give the reported IC50.
Reply | 13.8

----------
- Tested on: HL60 cells
- test.description: MTT cell proliferation assay, HL60 cells
- Format: cell-based, human
- measurement.setup: Homo sapiens, HL-60; 10% HS, DMSO control, 72 h treatment; read-out: IC50, proliferation of HL60 cells in HS, DMSO control
Record form. Attribute: pIC50. Fill in for each entry.
Numbers only, as −log10 of the molar value.

Cc1oncc1C(=O)Nc1ccc(C(F)(F)F)cc1 [Leflunomide, leflunomide]	4.11

Kindly review the next compound as well.
Ask | For the compound shown here, CNC(=O)c1cc(Oc2ccc(NC(=O)Nc3ccc(Cl)c(C(F)(F)F)c3)cc2)ccn1 , give the reported pIC50.
Reply | 4.45

----------
- System: MOLM13 cells
- test.description: MTT cell proliferation assay, MOLM13 cells
- Format: cell-based, human
- measurement.setup: MOLM-13; 10% human serum, 72 h treatment; read-out: IC50, proliferation of MOLM13 cells, HS 10%
property: IC50 (µM)
Numbers only, in µM.

CNC(=O)c1cc(Oc2ccc(NC(=O)Nc3ccc(Cl)c(C(F)(F)F)c3)cc2)ccn1 [Sorafenib, sorafenib]	0.037

Kindly review the next compound as well.
Ask | For the compound shown here, Cc1oncc1C(=O)Nc1ccc(C(F)(F)F)cc1 [Leflunomide, leflunomide] , give the reported IC50.
Reply | 175
